- targetUnderTest: FGFR1 (Homo sapiens, UniProt P11362)
- Sequence (P11362 22-822): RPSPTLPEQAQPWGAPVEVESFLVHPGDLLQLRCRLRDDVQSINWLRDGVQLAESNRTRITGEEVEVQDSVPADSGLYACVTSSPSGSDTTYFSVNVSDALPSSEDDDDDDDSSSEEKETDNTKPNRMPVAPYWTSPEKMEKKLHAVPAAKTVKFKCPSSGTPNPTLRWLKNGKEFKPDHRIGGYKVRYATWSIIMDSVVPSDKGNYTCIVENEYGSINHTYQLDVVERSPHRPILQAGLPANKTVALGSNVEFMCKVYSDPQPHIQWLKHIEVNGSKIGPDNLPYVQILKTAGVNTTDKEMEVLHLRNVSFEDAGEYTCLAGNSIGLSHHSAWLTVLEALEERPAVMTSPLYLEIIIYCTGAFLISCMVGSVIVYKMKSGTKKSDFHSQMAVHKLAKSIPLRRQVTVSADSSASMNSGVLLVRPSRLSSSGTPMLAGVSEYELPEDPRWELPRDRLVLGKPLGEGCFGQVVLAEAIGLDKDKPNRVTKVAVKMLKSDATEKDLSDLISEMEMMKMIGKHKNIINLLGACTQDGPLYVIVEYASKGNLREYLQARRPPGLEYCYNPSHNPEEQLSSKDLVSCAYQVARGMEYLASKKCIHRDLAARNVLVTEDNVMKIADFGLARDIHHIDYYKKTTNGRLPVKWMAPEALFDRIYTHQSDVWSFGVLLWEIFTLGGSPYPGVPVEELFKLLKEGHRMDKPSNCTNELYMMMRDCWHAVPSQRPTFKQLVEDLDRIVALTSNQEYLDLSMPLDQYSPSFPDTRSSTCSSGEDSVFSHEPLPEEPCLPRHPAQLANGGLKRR
- procedureText: ELISA kinase assay (FGFR1 enzymatic assay)
- Format: biochemical
- cond: 0.01 μmol/L compound, read-out: Enzyme Inhibition (%)

molecule	inhibition at 0.01 µM (%)
COc1cc(OC)c(Cl)c(-c2cc(C(=O)Nc3ccccc3)c3cn[nH]c3c2)c1Cl [Compound 10a]	27.3
C=CCN1CCN(c2cccc(NC(=O)c3cc(-c4c(Cl)c(OC)cc(OC)c4Cl)cc4[nH]ncc34)c2)CC1 [Compound 13c]	35.7
COc1cc(OC)c(Cl)c(-c2cc(C(=O)Nc3cccc(N4CCOCC4)c3)c3cn[nH]c3c2)c1Cl [Compound 12f]	28.3
COc1cc(OC)c(Cl)c(-c2cc(C(=O)Nc3cccc(N4CCN(C)CC4)c3)c3cn[nH]c3c2)c1Cl [Compound 13a]	48.3
COc1cc(OC)c(Cl)c(-c2cc(C(=O)Nc3cccc(-c4cnn(C)c4)c3)c3cn[nH]c3c2)c1Cl [Compound 12h]	34.5
CCOC(=O)c1cccc(NC(=O)c2cc(-c3c(Cl)c(OC)cc(OC)c3Cl)cc3[nH]ncc23)c1 [Compound 12c]	9.9
COc1cc(OC)c(Cl)c(-c2cc(C(=O)Nc3cccc([N+](=O)[O-])c3)c3cn[nH]c3c2)c1Cl [Compound 12d]	17.4
COc1cc(OC)c(Cl)c(-c2cc(C(=O)Nc3cccc(-c4cncnc4)c3)c3cn[nH]c3c2)c1Cl [Compound 12i]	35.1
COc1cc(OC)c(Cl)c(-c2cc(C(=O)Nc3cccc(N4CCNCC4)c3)c3cn[nH]c3c2)c1Cl [Compound 12g]	45.1
CNC(=O)c1cccc(NC(=O)c2cc(-c3c(Cl)c(OC)cc(OC)c3Cl)cc3[nH]ncc23)c1 [Compound 12b]	42.1
COc1cc(OC)c(Cl)c(-c2cc(C(=O)Nc3cccc(N4CCN(C)C4=O)c3)c3cn[nH]c3c2)c1Cl [Compound 12e]	17.2
COc1cc(OC)c(Cl)c(-c2cc(C(=O)Nc3cccc(N4CCN(C(C)=O)CC4)c3)c3cn[nH]c3c2)c1Cl [Compound 13e]	27.7
COc1cc(OC)c(Cl)c(-c2cc(C(=O)Nc3cccc(N4CCN(C(C)C)CC4)c3)c3cn[nH]c3c2)c1Cl [Compound 13d]	7.2
COC(=O)c1cccc(NC(=O)c2cc(-c3c(Cl)c(OC)cc(OC)c3Cl)cc3[nH]ncc23)c1 [Compound 12a]	17.1
CCN1CCN(c2cccc(NC(=O)c3cc(-c4c(Cl)c(OC)cc(OC)c4Cl)cc4[nH]ncc34)c2)CC1 [Compound 13b]	13.7

* * *

- targetUnderTest: UniProtKB P11362
- procedureText: ELISA kinase assay (FGFR1 enzymatic assay)
- Assay type: biochemical
- cond: 0.1 μmol/L compound, read-out: Enzyme Inhibition (%)
Respond with yes for inhibition at 0.1 µM values of 40% and above, no for values below.

compound	labelValue
COc1cc(OC)c(Cl)c(-c2cc(C(=O)Nc3cccc(N4CCNCC4)c3)c3cn[nH]c3c2)c1Cl [Compound 12g]	yes
CCOC(=O)c1cccc(NC(=O)c2cc(-c3c(Cl)c(OC)cc(OC)c3Cl)cc3[nH]ncc23)c1 [Compound 12c]	no
COc1cc(OC)c(Cl)c(-c2cc(C(=O)Nc3cccc([N+](=O)[O-])c3)c3cn[nH]c3c2)c1Cl [Compound 12d]	no
COc1nccc(NC(=O)c2cc(-c3c(Cl)c(OC)cc(OC)c3Cl)cc3[nH]ncc23)n1 [Compound 11e]	no
COc1cc(OC)c(Cl)c(-c2cc(C(=O)Nc3cccc(N4CCOCC4)c3)c3cn[nH]c3c2)c1Cl [Compound 12f]	yes
COc1cc(NC(=O)c2cc(-c3c(Cl)c(OC)cc(OC)c3Cl)cc3[nH]ncc23)ncn1 [Compound 11d]	yes
CNC(=O)c1cccc(NC(=O)c2cc(-c3c(Cl)c(OC)cc(OC)c3Cl)cc3[nH]ncc23)c1 [Compound 12b]	yes
C=CCN1CCN(c2cccc(NC(=O)c3cc(-c4c(Cl)c(OC)cc(OC)c4Cl)cc4[nH]ncc34)c2)CC1 [Compound 13c]	yes
COc1cc(OC)c(Cl)c(-c2cc(C(=O)Nc3cccc(N4CCN(C(C)=O)CC4)c3)c3cn[nH]c3c2)c1Cl [Compound 13e]	yes
COc1ccc(NC(=O)c2cc(-c3c(Cl)c(OC)cc(OC)c3Cl)cc3[nH]ncc23)cc1 [Compound 10e]	no
COc1cc(OC)c(Cl)c(-c2cc(C(=O)Nc3cccc(N4CCN(C(C)C)CC4)c3)c3cn[nH]c3c2)c1Cl [Compound 13d]	no
COc1cc(OC)c(Cl)c(-c2cc(C(=O)Nc3ccccc3)c3cn[nH]c3c2)c1Cl [Compound 10a]	yes
COc1cc(OC)c(Cl)c(-c2cc(C(=O)Nc3cccc(-c4cncnc4)c3)c3cn[nH]c3c2)c1Cl [Compound 12i]	yes
COc1cc(OC)c(Cl)c(-c2cc(C(=O)Nc3ccc(C(C)=O)cc3)c3cn[nH]c3c2)c1Cl [Compound 10c]	no
COc1cccc(NC(=O)c2cc(-c3c(Cl)c(OC)cc(OC)c3Cl)cc3[nH]ncc23)n1 [Compound 11a]	yes
COc1cc(NC(=O)c2cc(-c3c(Cl)c(OC)cc(OC)c3Cl)cc3[nH]ncc23)ccn1 [Compound 11b]	yes
COc1cc(OC)c(Cl)c(-c2cc(C(=O)Nc3cccc(N4CCN(C)C4=O)c3)c3cn[nH]c3c2)c1Cl [Compound 12e]	no
